Values were extracted from ChEMBL document CHEMBL1961873.

system: Epidermal growth factor receptor (Homo sapiens), P00533 [T790M]; conditions: at 1 µM
Sequence (P00533 whole entry T790M): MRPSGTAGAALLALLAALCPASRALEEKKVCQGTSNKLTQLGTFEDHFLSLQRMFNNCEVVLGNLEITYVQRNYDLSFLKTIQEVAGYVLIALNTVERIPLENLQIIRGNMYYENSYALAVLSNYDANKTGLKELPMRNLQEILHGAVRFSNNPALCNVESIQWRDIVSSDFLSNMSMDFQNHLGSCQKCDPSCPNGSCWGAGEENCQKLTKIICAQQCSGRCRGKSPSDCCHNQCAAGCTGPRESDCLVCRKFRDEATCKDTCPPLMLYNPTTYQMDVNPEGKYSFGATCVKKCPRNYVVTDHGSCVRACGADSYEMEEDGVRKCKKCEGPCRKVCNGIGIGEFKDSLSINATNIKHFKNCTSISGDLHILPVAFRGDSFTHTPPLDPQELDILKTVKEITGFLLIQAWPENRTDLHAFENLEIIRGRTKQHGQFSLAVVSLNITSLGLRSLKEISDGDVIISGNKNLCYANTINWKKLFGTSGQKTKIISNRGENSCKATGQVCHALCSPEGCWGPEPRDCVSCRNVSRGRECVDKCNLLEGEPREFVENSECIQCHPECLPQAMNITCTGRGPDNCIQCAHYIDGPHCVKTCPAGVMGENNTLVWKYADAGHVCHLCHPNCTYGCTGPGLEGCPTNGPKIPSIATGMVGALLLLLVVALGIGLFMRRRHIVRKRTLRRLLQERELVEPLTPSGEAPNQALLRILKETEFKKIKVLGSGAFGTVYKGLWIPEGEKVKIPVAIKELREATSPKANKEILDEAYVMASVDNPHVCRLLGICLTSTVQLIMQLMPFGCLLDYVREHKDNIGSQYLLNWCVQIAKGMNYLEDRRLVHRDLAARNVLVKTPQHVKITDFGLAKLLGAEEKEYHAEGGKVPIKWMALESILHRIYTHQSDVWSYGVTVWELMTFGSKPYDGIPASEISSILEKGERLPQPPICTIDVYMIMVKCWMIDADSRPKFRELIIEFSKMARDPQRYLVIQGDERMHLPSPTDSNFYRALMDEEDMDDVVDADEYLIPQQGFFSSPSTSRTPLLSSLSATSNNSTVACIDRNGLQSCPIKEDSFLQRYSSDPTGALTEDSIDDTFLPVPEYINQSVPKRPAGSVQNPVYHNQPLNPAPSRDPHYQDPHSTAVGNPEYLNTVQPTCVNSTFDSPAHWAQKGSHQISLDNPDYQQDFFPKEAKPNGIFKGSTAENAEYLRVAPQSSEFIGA
READOUT LABEL: inhibition (%)

[[record]]
compound_string = "Fc1ccc(-c2ncn(C3CCNCC3)c2-c2ccnc(Oc3ccccc3)n2)cc1"
readout_label = "inhibition"
units_text = "%"
measured_result = 2.3

[[record]]
compound_string = "NC(=O)c1sc(-n2cnc3cc(C(F)(F)F)ccc32)cc1OCc1ccccc1Br"
readout_label = "inhibition"
units_text = "%"
measured_result = 0.23

[[record]]
compound_string = "COc1cccc(-n2ncc3c(N/N=C/c4ccncc4)ncnc32)c1"
readout_label = "inhibition"
units_text = "%"
measured_result = 5.66

[[record]]
compound_string = "NS(=O)(=O)c1ccc(N/C=C2\\C(=O)Nc3ccc4ncsc4c32)cc1"
readout_label = "inhibition"
units_text = "%"
measured_result = 0.85

[[record]]
compound_string = "COc1cc(C=NNc2ncnc3c2cnn3Cc2ccccc2)ccc1O"
readout_label = "inhibition"
units_text = "%"
measured_result = -3.25

[[record]]
compound_string = "Nc1nonc1-c1nc2cnccc2n1C1CCCCC1"
readout_label = "inhibition"
units_text = "%"
measured_result = -2.94

[[record]]
compound_string = "CCn1c(-c2nonc2N)nc2c(C#CC(C)(C)O)nc(O[C@@H](CN)c3ccccc3)cc21"
readout_label = "inhibition"
units_text = "%"
measured_result = -1.37


###

Measured inhibition, listed per entry for reference.
biological target: Phosphorylase b kinase gamma catalytic chain, liver/testis isoform (Homo sapiens) (UniProt P15735); conditions: at 1 µM;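 also: reported value is the mean inhibition of PHKG2 from the GSK_PKIS screening set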
Sequence (P15735 whole entry, canonical isoform): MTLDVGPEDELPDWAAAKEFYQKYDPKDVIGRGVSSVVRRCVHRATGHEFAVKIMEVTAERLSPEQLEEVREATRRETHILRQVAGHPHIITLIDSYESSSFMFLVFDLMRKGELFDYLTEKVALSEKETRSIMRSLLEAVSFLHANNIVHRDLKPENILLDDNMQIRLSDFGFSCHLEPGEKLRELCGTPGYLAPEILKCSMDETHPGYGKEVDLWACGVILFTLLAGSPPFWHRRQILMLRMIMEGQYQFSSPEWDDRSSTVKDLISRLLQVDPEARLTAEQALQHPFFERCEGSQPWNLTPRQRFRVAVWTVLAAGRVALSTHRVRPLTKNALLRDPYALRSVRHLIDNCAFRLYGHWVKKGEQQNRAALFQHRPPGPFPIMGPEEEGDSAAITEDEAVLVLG
READOUT LABEL: inhibition

[[record]]
compound_string = "COc1cc2c(cc1Nc1nc(Nc3ccsc3C(N)=O)c3cc[nH]c3n1)N(C(=O)CN(C)C)CCC2"
readout_label = "inhibition"
measured_result = "-0.53%"

[[record]]
compound_string = "NC(=O)c1sc(-n2cnc3cc(C(F)(F)F)ccc32)cc1OCc1ccccc1Br"
readout_label = "inhibition"
measured_result = "3.01%"

[[record]]
compound_string = "CCn1c(-c2nonc2N)nc2c(C#CC(C)(C)O)ncc(OC[C@@H]3CCCN3)c21"
readout_label = "inhibition"
measured_result = "1.65%"

[[record]]
compound_string = "NS(=O)(=O)c1ccc(N/C=C2\\C(=O)Nc3ccc4ncsc4c32)cc1"
readout_label = "inhibition"
measured_result = "19.8%"

[[record]]
compound_string = "COc1cccc(-n2ncc3c(N/N=C/c4ccncc4)ncnc32)c1"
readout_label = "inhibition"
measured_result = "7.43%"

[[record]]
compound_string = "Fc1ccc(-c2ncn(C3CCNCC3)c2-c2ccnc(Oc3ccccc3)n2)cc1"
readout_label = "inhibition"
measured_result = "1.14%"

[[record]]
compound_string = "CCn1c(-c2nonc2N)nc2c(C#CCN)ncc(OCCCN)c21"
readout_label = "inhibition"
measured_result = "4.75%"

[[record]]
compound_string = "NS(=O)(=O)c1ccc(-c2ccc3c(NC(=O)C4CC4)n[nH]c3c2)cc1"
readout_label = "inhibition"
measured_result = "0%"

[[record]]
compound_string = "Cc1cc(-c2ccco2)cc(C)c1/C=C/c1cncc(-c2nn[nH]n2)c1"
readout_label = "inhibition"
measured_result = "1.22%"


###

Measured inhibition, listed per entry for reference.
target: Serine/threonine-protein kinase PAK 6 (Homo sapiens) (UniProt Q9NQU5); details: at 1 µM;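 also: values are mean percent inhibition of PAK6 kinase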
Sequence (Q9NQU5 whole entry, looked up): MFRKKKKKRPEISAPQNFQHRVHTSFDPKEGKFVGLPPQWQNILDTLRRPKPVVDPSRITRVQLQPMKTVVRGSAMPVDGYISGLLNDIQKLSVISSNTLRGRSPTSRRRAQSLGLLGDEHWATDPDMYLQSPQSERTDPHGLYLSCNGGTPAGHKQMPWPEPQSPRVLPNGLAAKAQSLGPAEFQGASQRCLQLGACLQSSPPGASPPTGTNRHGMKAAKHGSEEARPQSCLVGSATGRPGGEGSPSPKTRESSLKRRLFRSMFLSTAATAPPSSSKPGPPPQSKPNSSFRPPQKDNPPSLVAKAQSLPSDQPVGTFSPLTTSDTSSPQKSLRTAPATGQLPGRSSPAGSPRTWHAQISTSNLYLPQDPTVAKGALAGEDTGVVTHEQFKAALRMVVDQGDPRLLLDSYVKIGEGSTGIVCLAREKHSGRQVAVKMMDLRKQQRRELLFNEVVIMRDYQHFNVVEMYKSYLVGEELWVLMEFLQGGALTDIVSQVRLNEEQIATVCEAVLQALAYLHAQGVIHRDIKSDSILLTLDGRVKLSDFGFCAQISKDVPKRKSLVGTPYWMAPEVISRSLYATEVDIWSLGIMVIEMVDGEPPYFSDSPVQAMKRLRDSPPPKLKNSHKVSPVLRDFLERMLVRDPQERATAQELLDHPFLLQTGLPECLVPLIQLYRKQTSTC
READOUT LABEL: inhibition (%)

[[record]]
compound_string = "COc1cccc(-n2ncc3c(N/N=C/c4ccncc4)ncnc32)c1"
units_text = "%"
measured_result = -8.53

[[record]]
compound_string = "CCn1c(-c2nonc2N)nc2c(C#CC(C)(C)O)nc(O[C@@H](CN)c3ccccc3)cc21"
units_text = "%"
measured_result = 67.6

[[record]]
compound_string = "CCn1c(-c2nonc2N)nc2c(C#CC(C)(C)O)ncc(OC[C@@H]3CCCN3)c21"
units_text = "%"
measured_result = 58.4

[[record]]
compound_string = "COc1cccc(COc2cc(-n3cnc4ccccc43)sc2C(N)=O)c1"
units_text = "%"
measured_result = -1.23

[[record]]
compound_string = "NS(=O)(=O)c1ccc(-c2ccc3c(NC(=O)C4CC4)n[nH]c3c2)cc1"
units_text = "%"
measured_result = 9.03

[[record]]
compound_string = "CCn1c(-c2nonc2N)nc2c(C#CCN)ncc(OCCCN)c21"
units_text = "%"
measured_result = 2.6

[[record]]
compound_string = "COc1cc2c(cc1Nc1nc(Nc3ccsc3C(N)=O)c3cc[nH]c3n1)N(C(=O)CN(C)C)CCC2"
units_text = "%"
measured_result = 5.48

[[record]]
compound_string = "Fc1ccc(-c2ncn(C3CCNCC3)c2-c2ccnc(Oc3ccccc3)n2)cc1"
units_text = "%"
measured_result = -6.64


###

target: Misshapen-like kinase 1 (Homo sapiens); settings: at 1 µM
Description: GSK_PKIS: MINK mean inhibition at 1 uM [Nanosyn]
READOUT LABEL: inhibition (%)

[[record]]
compound_string = "NS(=O)(=O)c1ccc(N/C=C2\\C(=O)Nc3ccc4ncsc4c32)cc1"
units_text = "%"
measured_result = 76.9

[[record]]
compound_string = "COc1cc(C=NNc2ncnc3c2cnn3Cc2ccccc2)ccc1O"
units_text = "%"
measured_result = 5.48

[[record]]
compound_string = "Fc1ccc(-c2ncn(C3CCNCC3)c2-c2ccnc(Oc3ccccc3)n2)cc1"
units_text = "%"
measured_result = 6.65

[[record]]
compound_string = "CCn1c(-c2nonc2N)nc2c(C#CC(C)(C)O)ncc(OC[C@@H]3CCCN3)c21"
units_text = "%"
measured_result = 0.93

[[record]]
compound_string = "COc1cccc(-n2ncc3c(N/N=C/c4ccncc4)ncnc32)c1"
units_text = "%"
measured_result = 55.4


###

target: Platelet-derived growth factor receptor beta (Homo sapiens) (UniProt P09619); settings: at 0.1 µM;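 also: reported value is the mean percent inhibition of the kinase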
Measured inhibition, listed per entry for reference.
READOUT LABEL: inhibition (%)

[[record]]
compound_string = "NS(=O)(=O)c1ccc(N/C=C2\\C(=O)Nc3ccc4ncsc4c32)cc1"
readout_label = "inhibition"
measured_result = 56.5

[[record]]
compound_string = "Cc1cc(-c2ccco2)cc(C)c1/C=C/c1cncc(-c2nn[nH]n2)c1"
readout_label = "inhibition"
measured_result = 0.05

[[record]]
compound_string = "Nc1nonc1-c1nc2cnccc2n1C1CCCCC1"
readout_label = "inhibition"
measured_result = 4.64

[[record]]
compound_string = "CCn1c(-c2nonc2N)nc2c(C#CC(C)(C)O)ncc(OC[C@@H]3CCCN3)c21"
readout_label = "inhibition"
measured_result = 8.36


###

target: Tyrosine-protein kinase Fes/Fps (Homo sapiens) (UniProt P07332); details: at 1 µM;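 also: mean inhibition of FES from the GSK PKIS kinase inhibitor screening set, assayed by Nanosyn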
Sequence (P07332 whole entry): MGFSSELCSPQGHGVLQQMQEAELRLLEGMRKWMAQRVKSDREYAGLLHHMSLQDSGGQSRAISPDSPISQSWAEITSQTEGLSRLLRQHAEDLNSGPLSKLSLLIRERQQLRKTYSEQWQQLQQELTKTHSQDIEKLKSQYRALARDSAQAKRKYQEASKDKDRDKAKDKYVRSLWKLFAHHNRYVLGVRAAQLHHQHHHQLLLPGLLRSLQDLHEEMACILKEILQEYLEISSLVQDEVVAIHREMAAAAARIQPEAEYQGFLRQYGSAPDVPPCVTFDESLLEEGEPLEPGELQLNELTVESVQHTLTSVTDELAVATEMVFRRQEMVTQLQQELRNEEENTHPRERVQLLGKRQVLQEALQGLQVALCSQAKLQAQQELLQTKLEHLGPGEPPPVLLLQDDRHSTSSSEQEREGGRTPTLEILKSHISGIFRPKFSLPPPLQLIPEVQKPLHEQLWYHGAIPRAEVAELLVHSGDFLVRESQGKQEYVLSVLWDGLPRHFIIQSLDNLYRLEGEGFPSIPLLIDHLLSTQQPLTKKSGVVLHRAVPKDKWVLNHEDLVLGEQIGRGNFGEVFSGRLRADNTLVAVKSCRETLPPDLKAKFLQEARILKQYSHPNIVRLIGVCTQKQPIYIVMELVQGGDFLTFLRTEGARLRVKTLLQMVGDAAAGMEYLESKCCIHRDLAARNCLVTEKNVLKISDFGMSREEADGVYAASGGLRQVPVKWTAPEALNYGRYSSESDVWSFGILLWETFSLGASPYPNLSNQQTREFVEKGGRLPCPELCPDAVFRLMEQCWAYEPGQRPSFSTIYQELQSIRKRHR
READOUT LABEL: inhibition (%)

[[record]]
compound_string = "CCn1c(-c2nonc2N)nc2c(C#CC(C)(C)O)ncc(OCC3CCNCC3)c21"
readout_label = "inhibition"
units_text = "%"
measured_result = 4.04

[[record]]
compound_string = "NS(=O)(=O)c1ccc(-c2ccc3c(NC(=O)C4CC4)n[nH]c3c2)cc1"
readout_label = "inhibition"
units_text = "%"
measured_result = 2.53

[[record]]
compound_string = "COc1cc(C=NNc2ncnc3c2cnn3Cc2ccccc2)ccc1O"
readout_label = "inhibition"
units_text = "%"
measured_result = -3.75

[[record]]
compound_string = "COc1cccc(COc2cc(-n3cnc4ccccc43)sc2C(N)=O)c1"
readout_label = "inhibition"
units_text = "%"
measured_result = 0.56

[[record]]
compound_string = "COc1cccc(-n2ncc3c(N/N=C/c4ccncc4)ncnc32)c1"
readout_label = "inhibition"
units_text = "%"
measured_result = 5.85

[[record]]
compound_string = "Nc1nonc1-c1nc2cnccc2n1C1CCCCC1"
readout_label = "inhibition"
units_text = "%"
measured_result = -1.92

[[record]]
compound_string = "CCn1c(-c2nonc2N)nc2c(C#CC(C)(C)O)ncc(OC[C@@H]3CCCN3)c21"
readout_label = "inhibition"
units_text = "%"
measured_result = 4.12

[[record]]
compound_string = "COc1cc2c(cc1Nc1nc(Nc3ccsc3C(N)=O)c3cc[nH]c3n1)N(C(=O)CN(C)C)CCC2"
readout_label = "inhibition"
units_text = "%"
measured_result = 86.8

[[record]]
compound_string = "CCn1c(-c2nonc2N)nc2c(C#CC(C)(C)O)nc(O[C@@H](CN)c3ccccc3)cc21"
readout_label = "inhibition"
units_text = "%"
measured_result = 5.21

[[record]]
compound_string = "NS(=O)(=O)c1ccc(N/C=C2\\C(=O)Nc3ccc4ncsc4c32)cc1"
readout_label = "inhibition"
units_text = "%"
measured_result = 7.01


###

Measured inhibition, listed per entry for reference.
target: Misshapen-like kinase 1 (Homo sapiens) (UniProt Q8N4C8); settings: at 1 µM
Sequence (Q8N4C8 whole entry, looked up): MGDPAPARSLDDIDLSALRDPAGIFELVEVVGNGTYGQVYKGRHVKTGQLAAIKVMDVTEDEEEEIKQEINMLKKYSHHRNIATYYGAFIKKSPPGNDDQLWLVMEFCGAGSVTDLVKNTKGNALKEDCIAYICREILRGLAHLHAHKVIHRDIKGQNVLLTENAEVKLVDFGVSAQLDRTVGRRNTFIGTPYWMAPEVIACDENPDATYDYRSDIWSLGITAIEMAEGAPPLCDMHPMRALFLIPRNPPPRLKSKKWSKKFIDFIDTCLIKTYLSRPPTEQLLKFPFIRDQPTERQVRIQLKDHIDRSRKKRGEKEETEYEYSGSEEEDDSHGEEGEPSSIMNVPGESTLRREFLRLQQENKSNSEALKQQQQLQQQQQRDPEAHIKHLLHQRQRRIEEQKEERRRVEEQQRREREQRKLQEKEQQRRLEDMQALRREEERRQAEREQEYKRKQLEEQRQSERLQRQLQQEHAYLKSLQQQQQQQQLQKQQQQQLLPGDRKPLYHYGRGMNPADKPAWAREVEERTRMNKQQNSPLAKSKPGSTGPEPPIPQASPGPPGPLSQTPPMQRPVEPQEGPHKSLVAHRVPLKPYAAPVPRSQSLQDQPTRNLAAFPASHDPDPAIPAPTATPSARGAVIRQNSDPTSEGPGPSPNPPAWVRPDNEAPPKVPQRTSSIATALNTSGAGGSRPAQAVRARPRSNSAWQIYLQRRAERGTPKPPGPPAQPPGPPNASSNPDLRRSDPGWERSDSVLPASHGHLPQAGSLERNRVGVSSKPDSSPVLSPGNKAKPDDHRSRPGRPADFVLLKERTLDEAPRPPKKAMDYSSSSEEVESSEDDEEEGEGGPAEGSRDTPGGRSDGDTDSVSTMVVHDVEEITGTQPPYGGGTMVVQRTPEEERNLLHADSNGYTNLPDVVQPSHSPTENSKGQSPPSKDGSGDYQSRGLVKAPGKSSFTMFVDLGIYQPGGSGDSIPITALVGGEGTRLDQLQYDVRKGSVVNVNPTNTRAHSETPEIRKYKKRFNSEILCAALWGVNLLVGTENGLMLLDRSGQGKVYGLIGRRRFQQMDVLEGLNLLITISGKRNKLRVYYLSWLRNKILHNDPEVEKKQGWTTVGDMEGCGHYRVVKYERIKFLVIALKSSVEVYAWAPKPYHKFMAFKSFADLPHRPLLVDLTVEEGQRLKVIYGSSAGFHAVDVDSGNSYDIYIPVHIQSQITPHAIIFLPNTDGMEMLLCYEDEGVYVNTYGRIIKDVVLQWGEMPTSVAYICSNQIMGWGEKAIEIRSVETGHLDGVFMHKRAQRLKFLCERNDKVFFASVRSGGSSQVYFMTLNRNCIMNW
READOUT LABEL: inhibition (%)

[[record]]
compound_string = "COc1cccc(COc2cc(-n3cnc4ccccc43)sc2C(N)=O)c1"
assay_system = "Misshapen-like kinase 1 (Homo sapiens) (UniProt Q8N4C8)"
readout_label = "inhibition"
measured_result = 16.3

[[record]]
compound_string = "Cc1cc(-c2ccco2)cc(C)c1/C=C/c1cncc(-c2nn[nH]n2)c1"
assay_system = "Misshapen-like kinase 1 (Homo sapiens) (UniProt Q8N4C8)"
readout_label = "inhibition"
measured_result = 0.04

[[record]]
compound_string = "NC(=O)c1sc(-n2cnc3cc(C(F)(F)F)ccc32)cc1OCc1ccccc1Br"
assay_system = "Misshapen-like kinase 1 (Homo sapiens) (UniProt Q8N4C8)"
readout_label = "inhibition"
measured_result = 11.4

